Biological target: SARS-CoV-2 M^pro (Severe acute respiratory syndrome coronavirus 2, UniProt P0DTD1)
Assay: biochemical
Conditions: […]; mean ± SD from three experiments
Would you kindly list IC50 for each of these molecules?
Answers are plain numbers, in µM.

Take a look at these entries with their results.
O=C(NCc1nccs1)C(=O)[C@@H](Cc1ccccc1)NC(=O)c1ccccc1F: 0.264
O=C(CNC(=O)C1CCCC(F)(F)C1)N[C@H](Cc1ccccc1)C(=O)C(=O)NCc1nccs1 (some centres unmarked): 0.0458
C[C@@H](NC(=O)CC1CC(F)(F)C1)C(=O)N[C@H](Cc1ccccc1)C(=O)C(=O)NCc1nccs1: 0.0172
O=C(NCc1nccs1)C(=O)[C@@H](Cc1ccccc1)NC(=O)c1cccc(F)c1: 0.478
O=C(CNC(=O)c1cccc(F)c1)N[C@H](Cc1ccccc1)C(=O)C(=O)NCc1nccs1: 0.538

Report IC50 for every entry below.
1. O=C(CNC(=O)c1ccc(F)cc1)N[C@H](Cc1ccccc1)C(=O)C(=O)NCc1nccs1
2. C[C@@H](NC(=O)C1CCC(F)(F)C1)C(=O)N[C@H](Cc1ccccc1)C(=O)C(=O)NCc1nccs1 (some centres unmarked)
3. O=C(CNC(=O)C1CCC(F)(F)CC1)N[C@H](Cc1ccccc1)C(=O)C(=O)NCc1nccs1

Output line:
0.348
0.0225
0.0503

* * *

Biological target: SARS-CoV-2 M^pro (Severe acute respiratory syndrome coronavirus 2)
Test: biochemical
Details: mean ± SD from three experiments
measuredAttribute: pIC50
Give bare numbers, as −log10 of the molar value.

Take a look at these entries with their results.
O=C(NCc1ncno1)C(=O)[C@@H](Cc1ccccc1)NC(=O)c1ccccc1 [1h]: 4.21
O=C(CNC(=O)c1cnccn1)N[C@H](Cc1ccccc1)C(=O)C(=O)NCc1nccs1 [3h]: 5.44

Input line: Find the recorded pIC50 belonging to O=C(CNC(=O)c1cccnc1)N[C@H](Cc1ccccc1)C(=O)C(=O)NCc1nccs1 [3j] and report it.
Output line: 5.65

* * *

Biological target: SARS-CoV-2 M^pro (Severe acute respiratory syndrome coronavirus 2)
Experiment: biochemical
Details: read-out: IC50 against SARS-CoV-2 M^pro (FRET); mean ± SD from three experiments
measuredAttribute: IC50 (µM)
Give bare numbers, in µM.

Input line: // map `O=C(NCc1cocn1)C(=O)[C@@H](Cc1ccccc1)NC(=O)c1ccccc1` to recorded IC50 (system: SARS-CoV-2 M^pro (Severe acute respiratory syndrome coronavirus 2))
Output line: 11.4

* * *

Target: SARS-CoV-2 M^pro (Severe acute respiratory syndrome coronavirus 2, UniProt P0DTD1)
Assay: biochemical
Settings: mean ± SD from three experiments
measuredAttribute: pIC50
One number for each entry, as −log10 of the molar value.

Take a look at these entries with their results.
Cc1csc(CNC(=O)C(=O)[C@@H](Cc2ccccc2)NC(=O)c2ccccc2)n1: 4.39
O=C(NCc1ncco1)C(=O)[C@@H](Cc1ccccc1)NC(=O)c1ccccc1: 4.29
O=C(NCc1nccs1)C(=O)[C@@H](CC1CCCCC1)NC(=O)c1ccccc1: 4.98
O=C(CNC(=O)c1ccccc1)N[C@H](Cc1ccccc1)C(=O)C(=O)NCc1nccs1: 5.73
O=C(NCc1nccs1)C(=O)[C@@H](Cc1ccccc1)NC(=O)c1ccccc1: 5.89
O=C(CNC(=O)c1ccccn1)N[C@H](Cc1ccccc1)C(=O)C(=O)NCc1nccs1: 5.65

Report pIC50 for every entry below.
1. O=C(NCc1nccs1)C(=O)[C@@H](Cc1cccc(F)c1)NC(=O)c1ccccc1
2. O=C(NCc1cnc(Cl)s1)C(=O)[C@@H](Cc1ccccc1)NC(=O)c1ccccc1
3. O=C(NCc1cccs1)C(=O)[C@@H](Cc1ccccc1)NC(=O)c1ccccc1
4. O=C(CCc1ccccc1)N[C@H](Cc1ccccc1)C(=O)C(=O)NCc1nccs1
5. O=C(NCc1nccs1)C(=O)[C@@H](Cc1ccccc1F)NC(=O)c1ccccc1

Output line:
[5.59, 4.02, 4.11, 5.91, 5.46]

* * *

Molecular target: SARS-CoV-2 M^pro (Severe acute respiratory syndrome coronavirus 2)
Experiment: biochemical
Settings: […]; mean ± SD from three experiments
measuredAttribute: pIC50
Answers are plain numbers, as −log10 of the molar value.

COC[C@@H](NC(=O)C1CCC(F)(F)CC1)C(=O)N[C@H](Cc1ccccc1)C(=O)C(=O)NCc1nccs1: 7.74
O=C(CNC(=O)c1ccccc1F)N[C@H](Cc1ccccc1)C(=O)C(=O)NCc1nccs1: 6.00
O=C(CC1CC(F)(F)C1)NCC(=O)N[C@H](Cc1ccccc1)C(=O)C(=O)NCc1nccs1: 7.63

Report pIC50 for every entry below.
1. O=C(Cc1ccccc1)N[C@H](Cc1ccccc1)C(=O)C(=O)NCc1nccs1
2. COC[C@@H](NC(=O)CC1CC(F)(F)C1)C(=O)N[C@H](Cc1ccccc1)C(=O)C(=O)NCc1nccs1
3. O=C(CNC(=O)C1CCC(F)(F)C1)N[C@H](Cc1ccccc1)C(=O)C(=O)NCc1nccs1 (some centres unmarked)
4. O=C(COc1ccccc1)N[C@H](Cc1ccccc1)C(=O)C(=O)NCc1nccs1

Output line:
[6.02, 7.99, 7.25, 6.06]

Input line: Find the recorded pIC50 belonging to C[C@@H](NC(=O)C1CCCC(F)(F)C1)C(=O)N[C@H](Cc1ccccc1)C(=O)C(=O)NCc1nccs1 (some centres unmarked) and report it.
Output line: 7.55

* * *

Target: UniProtKB P0DTD1
Assay: biochemical
Settings: mean ± SD from three experiments
Would you kindly list pIC50 for each of these compounds?
Answers are plain numbers, as −log10 of the molar value.

Take a look at these entries with their results.
O=C(NCc1nccs1)C(=O)[C@@H](Cc1cc(F)c(F)cc1F)NC(=O)c1ccccc1: 5.47
O=C(NCc1ccco1)C(=O)[C@@H](Cc1ccccc1)NC(=O)c1ccccc1: 4.43
O=C(NCc1nccs1)C(=O)[C@@H](Cc1cccc(Cl)c1)NC(=O)c1ccccc1: 5.84
O=C(NCc1ccon1)C(=O)[C@@H](Cc1ccccc1)NC(=O)c1ccccc1: 4.26
O=C(NCc1nccs1)C(=O)[C@@H](Cc1ccc(Cl)c(Cl)c1)NC(=O)c1ccccc1: 5.69
O=C(NCc1nccs1)C(=O)[C@@H](Cc1ccccc1)NC(=O)c1ccc(F)cc1: 5.88
O=C(NCc1nccs1)C(=O)[C@@H](Cc1ccc(F)cc1)NC(=O)c1ccccc1: 5.71

Turning now to a further record.
Input line: Find the recorded pIC50 belonging to `O=C(NCc1ncon1)C(=O)[C@@H](Cc1ccccc1)NC(=O)c1ccccc1` and report it.
Output line: 4.28

Data origin, for the record: paper PMC10018608
